pIC50: −log10 of the molar value.
// cross-source set; read-out = pIC50; system = Dihydrofolate reductase (Neisseria gonorrhoeae)
endpoint name: pIC50

(I) Cc1cc(Cc2cnc(N)nc2N)cc(C(C)(C)C)c1N
(II) CCc1cc(Cc2cnc(N)nc2N)cc(CC)c1OCCO
(III) Nc1ncc(Cc2cc(Br)c(N)c(Br)c2)c(N)n1
(IV) CCOC(=O)C1CNc2c(OC)cc(Cc3cnc(N)nc3N)c(OC)c2C1 (configuration not stated)
(V) COc1cc2c(cc1OC)C(c1cnc(N)nc1N)CC2 (configuration not stated)
Rank entries according to their pIC50, from the largest number down. Please respond by ranking the labels in the order requested. II, III, I, IV, V
(II: 7.35, III: 7.03, I: 6.41, IV: 5.72, V: 5.01)

(1) CCc1cc(Cc2cnc(N)nc2N)cc(C)c1OC
(2) CCc1cc(Cc2cnc(N)nc2N)cc(CC)c1N
(3) COc1c(C(C)C)cc(Cc2cnc(N)nc2N)cc1C(C)C
(4) CCCc1cc(Cc2cnc(N)nc2N)cc(CCC)c1O
(5) CCc1cc(Cc2cnc(N)nc2N)cc(C)c1N
Form: Sort by [pIC50] Order [ ascending ] Please respond by ranking the labels in the order requested. 5, 1, 2, 3, 4

(1) Cc1cc(Cc2cnc(N)nc2N)cc(C(C)C)c1N
(2) Nc1ncc(Cc2cc(I)c(OCCCOc3ccccc3)c(I)c2)c(N)n1
Which has the smaller recorded pIC50, 1 or 2 ? Provide the label of your selected option as the answer. 1
